The reported numbers originate from ChEMBL document CHEMBL3885881.

species on record: Rattus norvegicus; test: DrugMatrix - Regimen: Daily Repeat; format: toxicity, organism-based, Sprague-Dawley; parameters: regimen Daily Repeat, gender Male, age 6-8 weeks; details: in vivo, po, 0 mg/kg, 72 h, tissue Plasma, route oral GAVAGE, dose level Control, time 3 day, vehicle .5 % CMC
Collected GLUCOSE values appear next to each entry.
Answer with a number only, understood to be in mg/dL.

Below, each entry is followed by its recorded GLUCOSE result.
In [3]: df
Out[3]:
                                   molecule  number
0  C[C@]12CC[C@@H]3c4ccc(O)cc4CC[C@H]3[C@@H]1C[C@@H](O)[C@@H]2O  151.67
1  CN(C)C(=O)C(CCN1CCC(O)(c2ccc(Cl)cc2)CC1)(c1ccccc1)c1ccccc1 [LOPERAMIDE]   171.5
2  NC(=O)N1c2ccccc2CC(=O)c2ccccc21 [OXCARBAZEPINE]  142.67

In: For the molecule shown here, CCCCC1=NC2(CCCC2)C(=O)N1Cc1ccc(-c2ccccc2-c2nnn[nH]2)cc1 , give the reported GLUCOSE.
Out: 140.83

In: Quick one: GLUCOSE of CCC1=C(C)CN(C(=O)NCCc2ccc(S(=O)(=O)NC(=O)N[C@H]3CC[C@H](C)CC3)cc2)C1=O [GLIMEPIRIDE] ?
Out: 171.5

In: Param item = C[C@@](Cc1ccc(O)c(O)c1)(NN)C(=O)O.O ; retrieve measured GLUCOSE.
Out: 171.33

In: May I ask what GLUCOSE has been recorded for CN1CCN(C2=Nc3cc(Cl)ccc3Nc3ccccc32)CC1 ?
Out: 185.17

In: # lookup: GLUCOSE of CCOc1nc2cccc(C(=O)O)c2n1Cc1ccc(-c2ccccc2-c2nnn[nH]2)cc1
Out: 152

In: Quick one: GLUCOSE of CN1C(=O)CN=C(c2ccccc2)c2cc([N+](=O)[O-])ccc21 ?
Out: 182.67
